These measurements were taken from paper PMC6175577.

# SYSTEM NAME: T1, TOPBP1-BRCT0,1,2 segment, wild type (recombinant, fluorescence polarisation) ( (human and chicken TOPBP1 …))
# T1 chain: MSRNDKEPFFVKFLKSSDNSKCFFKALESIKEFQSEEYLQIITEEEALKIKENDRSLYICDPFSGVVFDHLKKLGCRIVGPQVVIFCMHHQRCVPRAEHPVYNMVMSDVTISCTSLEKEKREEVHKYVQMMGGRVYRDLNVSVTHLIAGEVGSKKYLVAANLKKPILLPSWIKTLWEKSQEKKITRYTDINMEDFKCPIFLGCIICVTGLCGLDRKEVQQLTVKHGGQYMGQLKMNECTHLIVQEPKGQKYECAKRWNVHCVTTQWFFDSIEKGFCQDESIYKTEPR
# EXPERIMENT DESCRIPTION: FP
Where no end group is shown, it is not given here. [ ]: non-standard residue; d: D form. pT = C[C@@H](OP(=O)(O)O)[C@H](N)C(=O)O
MEASURE: Kd

>  <BINDER>
fluorescein-GYGGPVLVKD[pT]PEDKYGI [RHNO1 pT202 fluorescein-labelled phosphopeptide]

>  <VALUE REPORTED>
< 200 nM

$$$$
